assay: Cytotoxicity against Swiss mouse primary peritoneal macrophages assessed as growth inhibition at 50 uM after 48 hrs by MTT assay; details: Swiss, primary peritoneal macrophages, read-out: GI
Observable: inhibition at 48 h, 50 µM
Could you kindly put the unit after your number?

Past entries and their recorded results:
Molecule | inhibition at 48 h, 50 µM
C[C@]12CC[C@H](OC(=O)c3ccc(Br)cc3)CC1=CC[C@@H]1[C@@H]2CC[C@]2(C)C(n3ccnc3)=C(C=O)C[C@@H]12 | 40.3%
CC(=O)O[C@H]1CC[C@@]2(C)C(=CC[C@@H]3[C@@H]2CC[C@]2(C)C(n4ccnc4)=C(C=O)C[C@@H]32)C1 | 36.2%
C[C@]12CC[C@H](OC(=O)c3ccc(F)cc3)CC1=CC[C@@H]1[C@@H]2CC[C@]2(C)C(n3ccnc3)=C(C=O)C[C@@H]12 | 30.1%
C[C@]12CC[C@H](OC(=O)C3CC3)CC1=CC[C@@H]1[C@@H]2CC[C@]2(C)C(n3ccnc3)=C(C=O)C[C@@H]12 | 41.5%
CC(=O)N1CCN(c2ccc(OCC3COC(Cn4ccnc4)(c4ccc(Cl)cc4Cl)O3)cc2)CC1 (stereo unspecified) | 41.5%

Recorded inhibition at 48 h, 50 µM of `C[C@]12CC[C@H](OC(=O)c3ccc(Cl)cc3)CC1=CC[C@@H]1[C@@H]2CC[C@]2(C)C(n3ccnc3)=C(C=O)C[C@@H]12` , please.
29.2%

----------
biological target: 3-oxo-5-alpha-steroid 4-dehydrogenase 1 (Rattus norvegicus); experiment: Inhibition of rat liver 5alpha-reductase type 1 assessed as conversion of [3H]testosterone to dihydrotestosterone
Observable: IC50

Below are worked cases with known answers.
Smiles Str | Reading
C[C@]12CC[C@H](OC(=O)C3CCC3)CC1=CC[C@@H]1[C@@H]2CC[C@]2(C)C(Cl)=C(C=O)C[C@@H]12 | Not Active
C[C@]12CC[C@H](OC(=O)C3CC3)CC1=CC[C@@H]1[C@@H]2CC[C@]2(C)C(Cl)=C(C=O)C[C@@H]12 | Not Active
C[C@]12CC[C@H](OC(=O)C3CCCCC3)CC1=CC[C@@H]1[C@@H]2CC[C@]2(C)C(Cl)=C(C=O)C[C@@H]12 | Not Active
CC(=O)O[C@H]1CC[C@@]2(C)C(=CC[C@@H]3[C@@H]2CC[C@]2(C)C(n4ccnc4)=C(C=O)C[C@@H]32)C1 | Not Active
CC(=O)O[C@H]1CC[C@@]2(C)C(=CC[C@@H]3[C@@H]2CC[C@]2(C)C(Cl)=C(C=O)C[C@@H]32)C1 | Not Active
C[C@]12CC[C@H](OC(=O)C3CCCCCC3)CC1=CC[C@@H]1[C@@H]2CC[C@]2(C)C(Cl)=C(C=O)C[C@@H]12 | Not Active

Read the next record carefully.
Give the reported IC50 for `C[C@]12CC[C@H](OC(=O)C3CCCC3)CC1=CC[C@@H]1[C@@H]2CC[C@]2(C)C(Cl)=C(C=O)C[C@@H]12` (system: 3-oxo-5-alpha-steroid 4-dehydrogenase 1 (Rattus norvegicus)).
Not Active

----------
target: 3-oxo-5-alpha-steroid 4-dehydrogenase 2 (Homo sapiens); assay: Inhibition of human prostate 5alpha-reductase type 2 assessed as conversion of [3H]testosterone to dihydrotestosterone; set-up: species or system Prostate gland; conditions: read-out: IC50
Sequence (P31213 whole entry): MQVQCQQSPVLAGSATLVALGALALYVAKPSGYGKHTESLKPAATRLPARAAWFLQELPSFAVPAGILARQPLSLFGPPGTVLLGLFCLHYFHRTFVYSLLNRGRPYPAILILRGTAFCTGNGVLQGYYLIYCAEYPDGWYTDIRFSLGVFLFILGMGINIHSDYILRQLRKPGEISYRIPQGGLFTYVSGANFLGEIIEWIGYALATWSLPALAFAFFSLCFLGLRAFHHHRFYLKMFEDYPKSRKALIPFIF
pIC50: −log10 of the molar value.
Assign class by pIC50: not lower than 8 means true (1); lower than 8 means false (0).

Exam item: decide whether the reported pIC50 for `C[C@]12CC[C@H](OC(=O)C3CC3)CC1=CC[C@@H]1[C@@H]2CC[C@]2(C)C(Cl)=C(C=O)C[C@@H]12` is at least 8.
true (1)

Now this one: `C[C@]12CC[C@H](OC(=O)C3CCCC3)CC1=CC[C@@H]1[C@@H]2CC[C@]2(C)C(Cl)=C(C=O)C[C@@H]12`
false (0)

Again, but for `CC(=O)O[C@H]1CC[C@@]2(C)C(=CC[C@@H]3[C@@H]2CC[C@]2(C)C(Cl)=C(C=O)C[C@@H]32)C1`
false (0)

----------
test system: PC-3; assay: Cytotoxicity against human PC3 cells assessed as growth inhibition at 50 uM after 48 hrs by SRB assay; format: functional
Calls of active or inactive are those of the source. The rule behind the calls is not given here.
Observable: growth inhibition (GI)

Example compounds with recorded growth inhibition (GI):
Compound | Measured Target | growth inhibition (GI)
C[C@]12CC[C@H](OC(=O)C3CC3)CC1=CC[C@@H]1[C@@H]2CC[C@]2(C)C(Cl)=C(C=O)C[C@@H]12 | PC-3 | inactive
CC(C)(C)NC(=O)[C@H]1CC[C@H]2[C@@H]3CC[C@H]4NC(=O)C=C[C@]4(C)[C@H]3CC[C@]12C [FINASTERIDE] | PC-3 | inactive
C[C@]12CC[C@H](OC(=O)C3CCCC3)CC1=CC[C@@H]1[C@@H]2CC[C@]2(C)C(n3ccnc3)=C(C=O)C[C@@H]12 | PC-3 | inactive
C[C@]12CC[C@H](OC(=O)C3CCCCC3)CC1=CC[C@@H]1[C@@H]2CC[C@]2(C)C(n3ccnc3)=C(C=O)C[C@@H]12 | PC-3 | inactive
CC(=O)O[C@H]1CC[C@@]2(C)C(=CC[C@@H]3[C@@H]2CC[C@]2(C)C(Cl)=C(C=O)C[C@@H]32)C1 | PC-3 | inactive

Query compound follows.
For the compound `C[C@]12CC[C@H](OC(=O)C3CCC3)CC1=CC[C@@H]1[C@@H]2CC[C@]2(C)C(n3ccnc3)=C(C=O)C[C@@H]12` , what growth inhibition (GI) is on record?
inactive

----------
Biological target: UniProt P24008
Sequence (P24008 whole entry): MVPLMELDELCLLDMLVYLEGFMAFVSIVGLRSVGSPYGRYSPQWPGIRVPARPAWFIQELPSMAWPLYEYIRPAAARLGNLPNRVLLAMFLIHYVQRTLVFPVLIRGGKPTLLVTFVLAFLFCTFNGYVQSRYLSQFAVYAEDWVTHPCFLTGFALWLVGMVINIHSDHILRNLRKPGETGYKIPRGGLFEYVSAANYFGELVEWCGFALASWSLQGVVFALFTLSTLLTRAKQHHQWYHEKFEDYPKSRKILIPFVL
Assay: Inhibition of rat liver 5alpha-reductase type 1 assessed as conversion of [3H]testosterone to dihydrotestosterone
Details: read-out: IC50
Parameter pIC50: see the listing below.
As a rule, pIC50 stands for the negative log10 of the concentration, concentration in M.

Molecule | pIC50
C[C@]12CC[C@H](OC(=O)C3CC3)CC1=CC[C@@H]1[C@@H]2CC[C@]2(C)C(n3ccnc3)=C(C=O)C[C@@H]12 | 3.70
C[C@]12CC[C@H](OC(=O)C3CCCC3)CC1=CC[C@@H]1[C@@H]2CC[C@]2(C)C(n3ccnc3)=C(C=O)C[C@@H]12 | 3.58
C[C@]12CC[C@H](OC(=O)C3CCCCCC3)CC1=CC[C@@H]1[C@@H]2CC[C@]2(C)C(n3ccnc3)=C(C=O)C[C@@H]12 | 3.49
C[C@]12CC[C@H](OC(=O)c3ccc(Cl)cc3)CC1=CC[C@@H]1[C@@H]2CC[C@]2(C)C(n3ccnc3)=C(C=O)C[C@@H]12 | 4.00

Provide the documented pIC50 with UniProt P24008 as the system for `C[C@]12CC[C@H](OC(=O)c3ccc(Br)cc3)CC1=CC[C@@H]1[C@@H]2CC[C@]2(C)C(n3ccnc3)=C(C=O)C[C@@H]12`
4.02

Likewise for `C[C@]12CC[C@H](OC(=O)C3CCC3)CC1=CC[C@@H]1[C@@H]2CC[C@]2(C)C(n3ccnc3)=C(C=O)C[C@@H]12` ?
3.60

----------
target: 3-oxo-5-alpha-steroid 4-dehydrogenase 2 (Homo sapiens); experiment: Inhibition of human prostate 5alpha-reductase type 2 assessed as conversion of [3H]testosterone to dihydrotestosterone; design: species or system Prostate gland; details: read-out: IC50
A collection of compounds and their measured IC50
Give the value, in units of µM, as a plain number.

Smiles Str | Measured Target | Units Label | IC50
C[C@]12CC[C@H](OC(=O)C3CCC3)CC1=CC[C@@H]1[C@@H]2CC[C@]2(C)C(Cl)=C(C=O)C[C@@H]12 | 3-oxo-5-alpha-steroid 4-dehydrogenase 2 (Homo sapiens) | µM | 0.013

Param readout= IC50; system= 3-oxo-5-alpha-steroid 4-dehydrogenase 2 (Homo sapiens); entry= `C[C@]12CC[C@H](OC(=O)C3CCCCCC3)CC1=CC[C@@H]1[C@@H]2CC[C@]2(C)C(Cl)=C(C=O)C[C@@H]12` ; returns value.
0.015

Another compound to look at: `C[C@]12CC[C@H](OC(=O)C3CCCCC3)CC1=CC[C@@H]1[C@@H]2CC[C@]2(C)C(Cl)=C(C=O)C[C@@H]12`
0.008

----------
// values below are reported IC50
Target: 3-oxo-5-alpha-steroid 4-dehydrogenase 1 (Rattus norvegicus)
Sequence (P24008 whole entry): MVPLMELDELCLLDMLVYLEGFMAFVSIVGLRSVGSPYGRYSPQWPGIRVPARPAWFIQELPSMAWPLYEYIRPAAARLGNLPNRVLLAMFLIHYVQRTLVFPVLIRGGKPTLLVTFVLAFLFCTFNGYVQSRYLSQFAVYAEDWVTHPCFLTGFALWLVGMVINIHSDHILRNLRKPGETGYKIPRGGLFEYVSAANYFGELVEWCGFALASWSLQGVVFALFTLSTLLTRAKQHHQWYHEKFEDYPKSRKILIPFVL
Assay: Inhibition of rat liver 5alpha-reductase type 1 assessed as conversion of [3H]testosterone to dihydrotestosterone
Settings: read-out: IC50
Field: numeric (µM). Do not append units.

Compound | Reading
C[C@]12CC[C@H](OC(=O)C3CCCCC3)CC1=CC[C@@H]1[C@@H]2CC[C@]2(C)C(n3ccnc3)=C(C=O)C[C@@H]12 | 300

Which IC50 value is on record for `C[C@]12CC[C@H](OC(=O)c3ccc(F)cc3)CC1=CC[C@@H]1[C@@H]2CC[C@]2(C)C(n3ccnc3)=C(C=O)C[C@@H]12` ?
320

Repeat for the following compound: CC(C)(C)NC(=O)[C@H]1CC[C@H]2[C@@H]3CC[C@H]4NC(=O)C=C[C@]4(C)[C@H]3CC[C@]12C [FINASTERIDE]
630

Subsequent entry: `C[C@]12CC[C@H](OC(=O)c3ccc(I)cc3)CC1=CC[C@@H]1[C@@H]2CC[C@]2(C)C(n3ccnc3)=C(C=O)C[C@@H]12`
300

meta.source: ChEMBL document CHEMBL3351945
